Target: PTPμ (Homo sapiens, UniProt P28827)
Sequence (P28827 21-1452): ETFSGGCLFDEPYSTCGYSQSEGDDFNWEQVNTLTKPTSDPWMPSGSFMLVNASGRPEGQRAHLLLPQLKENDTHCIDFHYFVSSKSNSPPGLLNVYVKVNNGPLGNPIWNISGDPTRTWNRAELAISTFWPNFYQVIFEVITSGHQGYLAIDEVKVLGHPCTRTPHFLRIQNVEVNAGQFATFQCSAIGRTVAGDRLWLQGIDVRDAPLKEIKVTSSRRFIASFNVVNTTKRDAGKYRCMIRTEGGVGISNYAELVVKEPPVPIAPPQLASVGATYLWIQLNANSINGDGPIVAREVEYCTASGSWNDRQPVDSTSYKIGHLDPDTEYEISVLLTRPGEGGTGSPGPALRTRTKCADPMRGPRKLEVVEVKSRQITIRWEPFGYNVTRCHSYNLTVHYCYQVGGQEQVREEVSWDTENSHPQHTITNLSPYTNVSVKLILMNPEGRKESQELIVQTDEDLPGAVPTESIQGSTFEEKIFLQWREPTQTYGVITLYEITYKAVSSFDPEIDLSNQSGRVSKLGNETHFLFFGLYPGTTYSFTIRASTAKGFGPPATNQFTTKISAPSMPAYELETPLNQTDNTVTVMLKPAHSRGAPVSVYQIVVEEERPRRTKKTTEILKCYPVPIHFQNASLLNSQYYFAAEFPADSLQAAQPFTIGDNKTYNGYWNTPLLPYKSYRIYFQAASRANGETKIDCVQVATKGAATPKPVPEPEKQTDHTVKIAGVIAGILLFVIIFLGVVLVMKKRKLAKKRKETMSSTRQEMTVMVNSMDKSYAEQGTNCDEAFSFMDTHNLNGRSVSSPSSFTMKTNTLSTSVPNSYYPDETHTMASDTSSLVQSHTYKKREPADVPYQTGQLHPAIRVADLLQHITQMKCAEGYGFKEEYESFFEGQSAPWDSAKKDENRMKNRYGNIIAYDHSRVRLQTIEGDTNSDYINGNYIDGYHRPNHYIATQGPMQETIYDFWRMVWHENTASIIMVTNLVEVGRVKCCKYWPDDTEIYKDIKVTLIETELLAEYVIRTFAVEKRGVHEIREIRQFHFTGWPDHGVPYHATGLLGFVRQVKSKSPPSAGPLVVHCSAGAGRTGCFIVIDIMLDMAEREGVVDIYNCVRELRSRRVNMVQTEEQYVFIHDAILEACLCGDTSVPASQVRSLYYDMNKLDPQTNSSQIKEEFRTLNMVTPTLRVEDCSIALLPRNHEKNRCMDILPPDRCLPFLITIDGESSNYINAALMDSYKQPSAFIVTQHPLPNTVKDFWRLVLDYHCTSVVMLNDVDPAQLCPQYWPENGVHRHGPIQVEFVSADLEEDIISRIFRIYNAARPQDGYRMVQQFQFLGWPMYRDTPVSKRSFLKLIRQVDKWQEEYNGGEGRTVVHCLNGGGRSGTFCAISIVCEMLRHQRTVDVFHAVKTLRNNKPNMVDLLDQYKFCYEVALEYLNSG
Test: PTP inhibition assay (pNPP)
Each record here notes measured IC50.

Query block: Looking for the measured IC50 of O=C(CS(=O)(=O)O)Nc1nc2ccc([N+](=O)[O-])cc2s1 , can you help?
Result block: > 100 µM

Query block: Param item: O=C(Nc1cnc2ccccc2c1)C(c1ccccc1)S(=O)(=O)O (centres unmarked)
Result block: > 200 µM

Query block: Param item: O=C(Nc1cccc(OCc2ccccc2)c1)C(c1ccccc1)S(=O)(=O)O (centres unmarked)
Result block: > 200 µM

Query block: Param item: O=C(Nc1nc2ccccc2s1)C(c1ccccc1)S(=O)(=O)O (centres unmarked)
Result block: > 200 µM

Now let's try a different one.
Query block: Looking for the measured IC50 of O=C(C(c1ccccc1)S(=O)(=O)O)N1CCC(Cc2ccccc2)CC1 (centres unmarked) , can you help?
Result block: > 200 µM

----------
Molecular target: TbPTP1 (Trypanosoma brucei brucei, UniProt Q38AT7)
Sequence (Q38AT7 entry or part of it): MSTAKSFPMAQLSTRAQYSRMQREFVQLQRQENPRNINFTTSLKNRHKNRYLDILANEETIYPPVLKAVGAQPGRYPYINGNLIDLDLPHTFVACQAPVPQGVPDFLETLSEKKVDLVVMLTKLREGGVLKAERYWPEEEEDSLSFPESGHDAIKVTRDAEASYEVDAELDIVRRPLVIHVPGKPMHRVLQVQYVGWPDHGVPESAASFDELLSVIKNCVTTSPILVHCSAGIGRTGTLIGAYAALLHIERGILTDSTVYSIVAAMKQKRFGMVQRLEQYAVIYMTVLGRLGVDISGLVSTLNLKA
Assay: PTP inhibition assay (pNPP)
Assay type: biochemical
Conditions: pNPP at Km, pH 7.0, 25° C.; read-out: IC50 TbPTP1
pIC50: −log10 of the molar value.
Each record here notes measured pIC50.

These recorded examples may help you get a feel for the data.
Query block: Looking for the measured pIC50 of O=C(Nc1ccc(OCc2ccccc2)c(Cl)c1)C(=O)Nc1ccccc1NC(=O)C(c1ccccc1)S(=O)(=O)O (stereo not shown) , can you help?
Result block: < 4.30

Query block: Param item: O=C(C(c1ccccc1)S(=O)(=O)O)N1CCC(Cc2ccccc2)CC1 (stereo not shown)
Result block: < 3.70

Query block: Param item: O=C(C(c1ccccc1)S(=O)(=O)O)N1CCC(c2ccc(Cl)c(Cl)c2)CC1 (stereo not shown)
Result block: 4.42

Query block: Param item: O=C(C(c1ccccc1)S(=O)(=O)O)N1CCCC2CCCCC21 (stereo not shown)
Result block: < 3.70

Query block: Param item: Cc1c(Br)cc(NC(=O)CS(=O)(=O)O)cc1Br
Result block: < 4.00

New cases:
Query block: Looking for the measured pIC50 of O=C(Nc1cccc(OCc2ccccc2)c1)C(=O)Nc1ccccc1NC(=O)C(c1ccccc1)S(=O)(=O)O (stereo not shown) , can you help?
Result block: < 4.30

Query block: Param item: O=C(NCc1ccc(NC(=O)C(c2ccccc2)S(=O)(=O)O)cc1)c1ccccc1-c1ccc(C(F)(F)F)cc1 (stereo not shown)
Result block: 4.03

Query block: Param item: O=C(CS(=O)(=O)O)Nc1nc2ccccc2s1
Result block: < 4.00

Query block: Param item: O=C(CS(=O)(=O)O)Nc1nc2ccc([N+](=O)[O-])cc2s1
Result block: < 4.00

Query block: Param item: O=C(Nc1ccc(N2CCOCC2)cc1)C(c1ccccc1)S(=O)(=O)O (stereo not shown)
Result block: < 3.70

----------
Target: VHX (Homo sapiens, UniProt Q9NRW4)
Assay: PTP inhibition assay (pNPP)
Format: biochemical
Conditions: read-out: IC50 VHX; pNPP at Km, pH 7.0, 25° C.
quantity: pIC50
Just the number, please; pIC50 means minus log10 of the concentration in mol/L.

Query block: Looking for the measured pIC50 of Cc1c(Br)cc(NC(=O)C(c2ccccc2)S(=O)(=O)O)cc1Br (stereo not shown) , can you help?
Result block: 4.04

----------
Each record here notes measured IC50.
Target: Laforin (Homo sapiens)
Sequence (O95278 whole entry): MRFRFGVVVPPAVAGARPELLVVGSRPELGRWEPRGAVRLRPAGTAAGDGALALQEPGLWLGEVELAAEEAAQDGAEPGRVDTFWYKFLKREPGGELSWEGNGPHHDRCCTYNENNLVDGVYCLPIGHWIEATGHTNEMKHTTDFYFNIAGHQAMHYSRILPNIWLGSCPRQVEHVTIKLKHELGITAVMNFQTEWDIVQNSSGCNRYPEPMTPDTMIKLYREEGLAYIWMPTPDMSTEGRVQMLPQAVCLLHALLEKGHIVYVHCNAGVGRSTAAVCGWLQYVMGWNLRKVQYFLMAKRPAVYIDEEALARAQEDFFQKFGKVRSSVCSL
Assay: PTP inhibition assay (pNPP)
Assay type: biochemical
Details: pNPP at Km, pH 7.0, 25° C.; read-out: IC50 Laforin
Report the figure in µM without appending any unit label.

Query block: Looking for the measured IC50 of O=C(O)Cc1csc(NC(=O)C(c2ccccc2)S(=O)(=O)O)n1 (centres unmarked) , can you help?
Result block: 4.8

Query block: Param item: O=C(Nc1nc2ccccc2s1)C(c1ccc([N+](=O)[O-])cc1)S(=O)(=O)O (centres unmarked)
Result block: 66

Query block: Param item: O=C(Nc1ccc2nc(C(F)(F)F)[nH]c2c1)C(c1ccccc1)S(=O)(=O)O (centres unmarked)
Result block: 4.25

Query block: Param item: O=C(Nc1nc2c(Cl)cccc2s1)C(c1ccccc1)S(=O)(=O)O (centres unmarked)
Result block: 2.2

New cases:
Query block: Looking for the measured IC50 of O=C(Nc1nc2ccc(F)cc2s1)C(c1ccccc1)S(=O)(=O)O (centres unmarked) , can you help?
Result block: 1.7

Query block: Param item: O=C(Nc1nc(-c2ccccc2)cs1)C(c1ccccc1)S(=O)(=O)O (centres unmarked)
Result block: 6

Query block: Param item: O=C(Nc1nc2ccccc2s1)C(c1ccccc1F)S(=O)(=O)O (centres unmarked)
Result block: 14

Query block: Param item: Cc1ccc2nc(NC(=O)C(c3ccccc3)S(=O)(=O)O)sc2c1 (centres unmarked)
Result block: 2

----------
Target: SHP2 (Homo sapiens, UniProt Q06124)
Sequence (Q06124 224-528): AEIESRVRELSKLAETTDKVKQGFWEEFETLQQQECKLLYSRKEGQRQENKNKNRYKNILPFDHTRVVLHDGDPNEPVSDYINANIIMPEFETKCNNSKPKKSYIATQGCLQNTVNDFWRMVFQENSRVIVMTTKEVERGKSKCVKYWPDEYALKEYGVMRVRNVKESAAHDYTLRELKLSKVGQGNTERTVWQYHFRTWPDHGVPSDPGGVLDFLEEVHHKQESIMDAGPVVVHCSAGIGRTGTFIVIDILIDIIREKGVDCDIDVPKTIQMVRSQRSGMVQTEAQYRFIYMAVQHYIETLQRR
Test: SHP2 phosphatase inhibition assay (pNPP)
Type: biochemical
Conditions: […]; SHP2; read-out: IC50 SHP2
Each record here notes measured pIC50.
Just the number, please; pIC50 means minus log10 of the concentration in mol/L.

These recorded examples may help you get a feel for the data.
Query block: Looking for the measured pIC50 of COc1ccc(CNC(=O)C(Br)(c2ccccc2)S(=O)(=O)O)c(OC)c1 (stereo not drawn) , can you help?
Result block: 5.00

Query block: Param item: O=C(C(c1ccc(-c2ccccc2)cc1)S(=O)(=O)O)N1CCc2cc(Br)ccc21 (stereo not drawn)
Result block: 4.80

Query block: Param item: CC(C)CCNC(=O)C(c1ccc2ccccc2c1)S(=O)(=O)O (stereo not drawn)
Result block: 4.13

Query block: Param item: O=C(Nc1ccc(Br)c2ccccc12)C(c1ccc(-c2ccccc2)cc1)S(=O)(=O)O (stereo not drawn)
Result block: 4.62

Query block: Param item: O=C(NNc1ccccc1[N+](=O)[O-])C(c1ccc(-c2ccccc2)cc1)S(=O)(=O)O (stereo not drawn)
Result block: 4.09

New cases:
Query block: Looking for the measured pIC50 of O=C(NNc1ccccc1)C(c1ccc([N+](=O)[O-])cc1)S(=O)(=O)O (stereo not drawn) , can you help?
Result block: 5.14

Query block: Param item: O=C(Nc1nc2ccccc2s1)C(Br)(c1ccccc1)S(=O)(=O)O (stereo not drawn)
Result block: 4.88

Query block: Param item: O=C(Nc1ccc(OCc2ccccc2)c(Cl)c1)C(c1ccc2ccccc2c1)S(=O)(=O)O (stereo not drawn)
Result block: 4.62

----------
Molecular target: UniProt Q9NRW4
Sequence (Q9NRW4 1-184): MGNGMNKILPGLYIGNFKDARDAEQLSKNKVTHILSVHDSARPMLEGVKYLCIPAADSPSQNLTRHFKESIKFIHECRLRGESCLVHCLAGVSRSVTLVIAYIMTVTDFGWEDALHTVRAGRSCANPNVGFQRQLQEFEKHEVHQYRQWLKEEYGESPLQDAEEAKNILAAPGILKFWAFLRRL
Experiment: PTP inhibition assay (pNPP)
Format: biochemical
Conditions: pNPP at Km, pH 7.0, 25° C.; read-out: IC50 VHX (second VHX line of Table 15)
pIC50: −log10 of the molar value.
quantity: pIC50

These recorded examples may help you get a feel for the data.
Query block: Looking for the measured pIC50 of O=C(Nc1cnc2ccccc2c1)C(c1ccccc1)S(=O)(=O)O (centres unmarked) , can you help?
Result block: < 3.70

Query block: Param item: O=C(Nc1ccc2nc(C(F)(F)F)[nH]c2c1)C(c1ccccc1)S(=O)(=O)O (centres unmarked)
Result block: < 3.70

Query block: Param item: O=C(Nc1nc2ccccc2s1)C(c1ccccc1)S(=O)(=O)O (centres unmarked)
Result block: < 3.70

Query block: Param item: O=C(CS(=O)(=O)O)Nc1nc2ccccc2s1
Result block: < 4.00

Query block: Param item: O=C(CS(=O)(=O)O)Nc1nc2ccc([N+](=O)[O-])cc2s1
Result block: < 4.00

New cases:
Query block: Looking for the measured pIC50 of O=C(CS(=O)(=O)O)Nc1ccc2nc(C(F)(F)F)[nH]c2c1 , can you help?
Result block: < 4.00

Query block: Param item: O=C(Nc1ccc(N2CCOCC2)cc1)C(c1ccccc1)S(=O)(=O)O (centres unmarked)
Result block: < 3.70

Query block: Param item: O=C(CS(=O)(=O)O)Nc1cnc2ccccc2c1
Result block: < 4.00
